Sourced from patent US11542492B2

So I've got a bunch of compounds here, and I need their IC50 values.
Target: HCV NS3/4A 1b protease enzyme (wild type) (Hepatitis C virus genotype 1b, UniProt P26663)
Construct: 10× stocks of NS3/4A protease enzyme from Bioenza (Mountain View, Calif.)
Sequence (P26663 1658-1711): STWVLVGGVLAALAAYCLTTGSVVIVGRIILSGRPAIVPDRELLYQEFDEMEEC
Sequence (P26663 1027-1657): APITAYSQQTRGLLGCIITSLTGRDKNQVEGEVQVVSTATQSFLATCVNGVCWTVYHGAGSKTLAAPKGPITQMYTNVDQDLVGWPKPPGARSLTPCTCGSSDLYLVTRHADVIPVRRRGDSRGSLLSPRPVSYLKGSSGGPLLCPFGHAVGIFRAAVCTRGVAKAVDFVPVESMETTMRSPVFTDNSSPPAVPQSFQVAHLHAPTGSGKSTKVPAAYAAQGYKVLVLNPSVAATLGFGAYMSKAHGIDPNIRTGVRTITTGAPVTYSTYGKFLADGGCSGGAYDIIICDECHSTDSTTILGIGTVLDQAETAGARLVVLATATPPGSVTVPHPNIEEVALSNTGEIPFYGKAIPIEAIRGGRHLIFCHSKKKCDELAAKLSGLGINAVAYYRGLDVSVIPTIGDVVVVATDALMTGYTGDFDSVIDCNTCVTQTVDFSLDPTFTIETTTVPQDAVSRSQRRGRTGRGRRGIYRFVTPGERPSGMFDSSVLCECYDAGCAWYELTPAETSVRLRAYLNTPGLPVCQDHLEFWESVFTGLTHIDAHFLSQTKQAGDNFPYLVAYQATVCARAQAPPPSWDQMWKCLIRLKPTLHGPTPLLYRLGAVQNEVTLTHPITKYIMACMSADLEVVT
Test: HCV protease FRET assay (IC50_APP), wild type NS3/4A 1b

Find the measured IC50 of C=C[C@@H]1C[C@]1(NC(=O)[C@@H]1CC(OC(=O)N2Cc3cccc(F)c3C2)CN1C(=O)[C@H](CN(C)C(=O)[C@@H]1CCC(=O)O1)NC(=O)OC(C)(C)C)C(=O)NS(=O)(=O)C1CC1 (stereo partly shown) and report it.
1 to 10 nM

Find the measured IC50 of C=C[C@@H]1C[C@]1(NC(=O)[C@@H]1CC(Oc2nccc3cc(OC)ccc23)CN1C(=O)[C@H](CCC(=O)N1C[C@H]2C[C@@H]1C(=O)O2)NC(=O)OC(C)(C)C)C(=O)NS(=O)(=O)C1CC1 (stereo partly shown) and report it.
< 1 nM

Find the measured IC50 of C=C[C@@H]1C[C@]1(NC(=O)[C@@H]1CC(OC(=O)N2Cc3cccc(F)c3C2)CN1C(=O)[C@H](CC(=O)N1C[C@H]2C[C@@H]1C(=O)O2)NC(=O)OC(C)(C)C)C(=O)NS(=O)(=O)C1CC1 (stereo partly shown) and report it.
< 1 nM

Find the measured IC50 of C=C[C@@H]1C[C@]1(NC(=O)[C@@H]1CC(OC(=O)N2Cc3cccc(F)c3C2)CN1C(=O)[C@@H]1CCC(=O)O1)C(=O)NS(=O)(=O)C1CC1 (stereo partly shown) and report it.
100 to 1000 nM

Find the measured IC50 of C=C[C@@H]1C[C@]1(NC(=O)[C@@H]1CC(OC(=O)N2Cc3cccc(F)c3C2)CN1C(=O)[C@H](CCC(=O)N1C[C@H]2C[C@@H]1C(=O)O2)NC(=O)OC(C)(C)C)C(=O)NS(=O)(=O)C1CC1 (stereo partly shown) and report it.
< 1 nM

Find the measured IC50 of C=C[C@@H]1C[C@]1(NC(=O)[C@@H]1CC(OC(=O)N2Cc3cccc(F)c3C2)CN1C(=O)[C@H](CNC(=O)[C@@H]1CCC(=O)O1)NC(=O)OC(C)(C)C)C(=O)NS(=O)(=O)C1CC1 (stereo partly shown) and report it.
1 to 10 nM

Find the measured IC50 of C=C[C@@H]1C[C@]1(NC(=O)[C@@H]1CC(OC(=O)N2Cc3cccc(F)c3C2)CN1C(=O)CNC(=O)[C@H]1CCC(=O)O1)C(=O)NS(=O)(=O)C1CC1 (stereo partly shown) and report it.
100 to 1000 nM

Find the measured IC50 of C=C[C@@H]1C[C@]1(NC(=O)[C@@H]1CC(Oc2nccc3cc(OC)ccc23)CN1C(=O)[C@H](CC(=O)N1C[C@H]2C[C@@H]1C(=O)O2)NC(=O)OC(C)(C)C)C(=O)NS(=O)(=O)C1CC1 (stereo partly shown) and report it.
1 to 10 nM

Find the measured IC50 of C=C[C@@H]1C[C@]1(NC(=O)[C@@H]1CC(Oc2nccc3cc(OC)ccc23)CN1C(=O)[C@H](CCC(=O)N1CC[C@H]2C[C@@H]1C(=O)O2)NC(=O)OC(C)(C)C)C(=O)NS(=O)(=O)C1CC1 (stereo partly shown) and report it.
< 1 nM

Find the measured IC50 of C=C[C@@H]1C[C@]1(NC(=O)[C@@H]1CC(Oc2cc(-c3ccccc3)nc3cc(OC)ccc23)CN1C(=O)[C@H](CCC(=O)N1CCC1=O)NC(=O)OC(C)(C)C)C(=O)NS(=O)(=O)C1CC1 (stereo partly shown) and report it.
< 1 nM

Find the measured IC50 of C=C[C@@H]1C[C@]1(NC(=O)[C@@H]1CC(Oc2nccc3cc(OC)ccc23)CN1C(=O)[C@H](CCC(=O)N1C[C@@H]2C[C@H]1C(=O)O2)NC(=O)OC(C)(C)C)C(=O)NS(=O)(=O)C1CC1 (stereo partly shown) and report it.
< 1 nM

Find the measured IC50 of C=C[C@@H]1C[C@]1(NC(=O)[C@@H]1CC(OC(=O)N2Cc3cccc(F)c3C2)CN1C(=O)[C@H](CNC(=O)[C@H]1CCC(=O)O1)NC(=O)OC(C)(C)C)C(=O)NS(=O)(=O)C1CC1 (stereo partly shown) and report it.
1 to 10 nM

Find the measured IC50 of C=C[C@@H]1C[C@]1(NC(=O)[C@@H]1CC(OC(=O)N2Cc3cccc(F)c3C2)CN1C(=O)[C@H]1CCC(=O)O1)C(=O)NS(=O)(=O)C1CC1 (stereo partly shown) and report it.
> 1000 nM

Find the measured IC50 of C=C[C@@H]1C[C@]1(NC(=O)[C@@H]1CC(OC(=O)N2Cc3cccc(F)c3C2)CN1C(=O)[C@H](CCNC(=O)[C@H]1CCC(=O)O1)NC(=O)OC(C)(C)C)C(=O)NS(=O)(=O)C1CC1 (stereo partly shown) and report it.
100 to 1000 nM

Find the measured IC50 of C=C[C@@H]1C[C@]1(NC(=O)[C@@H]1C[C@@H](OC(=O)N2Cc3cccc(F)c3C2)CN1C(=O)[C@H](CNC(=O)c1coc(C(C)=O)c1)NC(=O)OC(C)(C)C)C(=O)NS(=O)(=O)C1CC1 and report it.
100 to 1000 nM

Find the measured IC50 of C=C[C@@H]1C[C@]1(NC(=O)[C@@H]1CC(OC(=O)N2Cc3cccc(F)c3C2)CN1C(=O)CNC(=O)[C@@H]1CCC(=O)O1)C(=O)NS(=O)(=O)C1CC1 (stereo partly shown) and report it.
100 to 1000 nM
